Taken from ChEMBL document CHEMBL1201862.

system: SR; assay: NCI tumour cell line growth inhibition, 48 h
Active and inactive are the calls of the source. Rule as the data show it: active = GI50 up to about 1.1 µM and inactive = higher.
Result Type: GI50

Please review the following examples before continuing.
Query: For O=c1c2ccccc2[se]n1-c1cccnc1 , write its GI50.
Reply: 34.7 µM (inactive)

Query: Fill in GI50 for record CCN(CC)C(=O)N1CN(c2ccccc2)C2(CCN(CCCC3(c4ccc(F)cc4)OCCO3)CC2)C1=O
Reply: 11.6 µM (inactive)

Please state, for each entry, its recorded GI50.
1. COc1cc(C2C3C=CC=C4CC=CC(=C43)C3CCC(=O)N32)cc(OC)c1OC (centres undefined)
2. O=C(CO)CC(=O)C(=O)Nc1cccc(C(F)(F)F)c1
3. C=CCc1cccc2cc(C(=O)Nc3nc(C45CC6CC(CC(C6)C4)C5)cs3)c(=O)oc12
4. O=C(CSCC(=O)N/N=C\c1ccc(-c2ccccc2)cc1)N/N=C\c1ccc(-c2ccccc2)cc1
5. Nc1nc2c(ncn2Cc2ccc(CO)cc2)c(=O)[nH]1

Reply:
["> 100 µM (inactive)", "> 100 µM (inactive)", "28.9 µM (inactive)", "6.58 µM (inactive)", "95.5 µM (inactive)"]

// for each compound in input: emit GI50
1. C=C(Cl)/C(=C\Cl)CCC(Br)C(C)C (centres undefined)
2. Nc1nc2c3nc(Nc4ccccc4)sc3nc(=S)n2c2sc(Nc3ccccc3)nc12

Reply:
1: > 100 µM (inactive); 2: 5.19 µM (inactive)
